B1: BBSome complex member BBS2 (Homo sapiens), Q9BXC9 (parent)
chain: MLLPVFTLKLRHKISPRMVAIGRYDGTHPCLAAATQTGKVFIHNPHTRNQHVSASRVFQSPLESDVSLLSINQAVSCLTAGVLNPELGYDALLVGTQTNLLAYDVYNNSDLFYREVADGANAIVLGTLGDISSPLAIIGGNCALQGFNHEGSDLFWTVTGDNVNSLALCDFDGDGKKELLVGSEDFDIRVFKEDEIVAEMTETEIVTSLCPMYGSRFGYALSNGTVGVYDKTSRYWRIKSKNHAMSIHAFDLNSDGVNELITGWSNGKVDARSDRTGEVIFKDNFSSAIAGVVEGDYRMDGHIQLICCSVDGEIRGYLPGTAEMRGNLMDTSAEQDLIRELSQKKQNLLLELRNYEENAKAELASPLNEADGHRGIIPANTRLHTTLSVSLGNETQTAHTELRISTSNDTIIRAVLIFAEGIFTGESHVVHPSIHNLSSSICIPIVPPKDVPVDLHLKAFVGYRSSTQFHVFESTRQLPRFSMYALTSLDPASEPISYVNFTIAERAQRVVVWLGQNFLLPEDTHIQNAPFQVCFTSLRNGGHLHIKIKLSGEITINTDDIDLAGDIIQSMASFFAIEDLQVEADFPVYFEELRKVLVKVDEYHSVHQKLSADMADHSNLIRSLLVGAEDARLMRDMKTMKSRYMELYDLNRDLLNGYKIRCNNHTELLGNLKAVNQAIQRAGRLRVGKPKNQVITACRDAIRSNNINTLFKIMRVGTASS
partner: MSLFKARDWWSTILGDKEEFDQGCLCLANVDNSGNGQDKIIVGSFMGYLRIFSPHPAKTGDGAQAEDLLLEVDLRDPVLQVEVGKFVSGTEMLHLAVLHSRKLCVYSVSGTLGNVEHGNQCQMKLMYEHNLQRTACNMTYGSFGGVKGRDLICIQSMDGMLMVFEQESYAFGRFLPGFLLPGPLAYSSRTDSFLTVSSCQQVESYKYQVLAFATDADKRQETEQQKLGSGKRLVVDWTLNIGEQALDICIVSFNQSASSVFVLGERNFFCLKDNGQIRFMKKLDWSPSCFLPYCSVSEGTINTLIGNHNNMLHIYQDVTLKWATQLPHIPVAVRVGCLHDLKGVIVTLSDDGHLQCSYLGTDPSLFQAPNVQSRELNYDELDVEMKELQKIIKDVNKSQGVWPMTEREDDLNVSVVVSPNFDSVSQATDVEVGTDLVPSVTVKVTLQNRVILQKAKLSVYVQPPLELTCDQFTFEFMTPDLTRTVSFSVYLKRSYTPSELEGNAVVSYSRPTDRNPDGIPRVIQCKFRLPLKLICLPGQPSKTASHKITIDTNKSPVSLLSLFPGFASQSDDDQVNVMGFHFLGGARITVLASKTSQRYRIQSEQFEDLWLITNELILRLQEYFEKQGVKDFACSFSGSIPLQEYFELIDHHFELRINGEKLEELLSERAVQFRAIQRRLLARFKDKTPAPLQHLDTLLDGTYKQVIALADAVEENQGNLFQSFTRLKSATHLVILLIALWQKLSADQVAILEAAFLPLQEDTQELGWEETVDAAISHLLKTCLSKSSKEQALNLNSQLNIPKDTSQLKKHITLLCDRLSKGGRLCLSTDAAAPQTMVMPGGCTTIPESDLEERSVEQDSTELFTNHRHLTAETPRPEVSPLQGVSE

Variants of: B1
Settings: with pthb1_human BBS9, Q3SYG4
metric-name: effect of a mutation on the interaction

H604E :: with no effect
V510A :: with no effect
A529E :: with no effect
A564E :: with no effect
S623E :: with no effect
E591K :: with no effect
L624A :: with no effect
H617K :: with no effect

Measured effect of a mutation on the interaction, `R703A` : with no effect

Measured effect of a mutation on the interaction, `T524E` : with no effect

Measured effect of a mutation on the interaction, `K641A` : with no effect

Measured effect of a mutation on the interaction, `M329E` : with no effect

Measured effect of a mutation on the interaction, `F575E` : with no effect

Measured effect of a mutation on the interaction, `F590E` : with no effect

Measured effect of a mutation on the interaction, `N664A` : with no effect

Measured effect of a mutation on the interaction, `E334A` : with no effect

Measured effect of a mutation on the interaction, `I404E` : with no effect

Measured effect of a mutation on the interaction, `L328E` : with no effect

Measured effect of a mutation on the interaction, `M645K` : with no effect
